B1: CPEB3 Ribozyme (parent)
chain: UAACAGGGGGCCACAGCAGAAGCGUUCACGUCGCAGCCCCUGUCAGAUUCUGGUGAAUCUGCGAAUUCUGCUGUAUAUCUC

Variants of: B1
Assay: self-cleavage, relative activity (ratio to wild type); higher = more cleavage; in vitro, sequencing
Would you kindly list self-cleavage for each of these variants?
Give bare numbers.

[[record]]
variant_descriptor = "A28G C29U"
numeric_value = 0.52


Return reported self-cleavage values for all items listed beneath this line.
1. A45G C50G
2. A15G U41A
3. G22A U43G
4. A20G C50U
5. G33C G53C
6. G36A A75U

Ans:
0.28
0.23
0.09
0.99
0.07
0.36

Recorded values, source the RNAGym collection of RNA variant scans (doi:10.1093/nar/gkz1192).
